System: CAKI-1 renal
Experiment: NCI tumour cell line growth inhibition, 48 h
Here the recorded TGI is given for each entry.

| Compound | TGI |
| --- | --- |
| O=C1CSSCC(=O)Nc2ccccc2N1 | > 100 µM |
| O=C(CCN(C(=O)O)S(=O)(=O)c1ccc(NC(=O)c2ccccc2)cc1)NC1CCCCC1 | > 100 µM |
| N#CC12CNCC1CN=N2 (stereo not drawn) | > 100 µM |
| O=C(Nc1ccncc1)C(=O)c1cn(S(=O)(=O)c2cccc(F)c2)c2ccccc12 | > 100 µM |
| CN(C)/N=C(/CC(O)(C(F)(F)F)C(F)(F)F)c1ccc([N+](=O)[O-])cc1 | > 100 µM |

Fill blank: measured TGI of the compound O=c1[nH]nc(-c2ccccc2)n1/N=C/c1ccc([N+](=O)[O-])cc1 is ____.
> 59.3 µM

Fill blank: measured TGI of the compound c1ccc(-c2nc3ccccc3n3c(CN4CCCCC4)nnc23)cc1 is ____.
> 100 µM

Fill blank: measured TGI of the compound CCCn1c(=S)sc2c1nc(C)n1c(Nc3ccccc3)nnc21 is ____.
62.4 µM

Fill blank: measured TGI of the compound CC1(C)C2CCC(CN)(C2)C1N (stereo not drawn) is ____.
> 100 µM

Fill blank: measured TGI of the compound O=S(=O)(O)C1=C2Sc3ccccc3N=C2c2ccccc2C1 is ____.
34.7 µM

Fill blank: measured TGI of the compound COC(=O)/C=C(/C=C1/C(C#N)=C(N)N(c2ccc(Cl)cc2)C1(C)/C(=C/C(=O)OC)C(=O)OC)C(=O)OC (stereo not drawn) is ____.
> 100 µM

Fill blank: measured TGI of the compound O=C(CC1C(=O)NN(c2ccc(Br)cc2)C1=O)c1cc(O)ccc1O (stereo not drawn) is ____.
35.7 µM

Fill blank: measured TGI of the compound COc1ccc(C[C@@H](CO)NC2=C(C#N)CCC2)cc1 is ____.
> 100 µM

====

Here the recorded TGI is given for each entry.
System: HCT-15 colon
Test: NCI tumour cell line growth inhibition, 48 h

Fill blank: measured TGI of the molecule C/C(Cl)=N/OC(=O)Nc1ccc(S(N)(=O)=O)c(C)c1 is ____.
3.86 µM

Fill blank: measured TGI of the molecule NCCCCC(NC(=O)C(N)Cc1ccc(O)cn1)C(=O)O (configuration not stated) is ____.
> 100 µM

Fill blank: measured TGI of the molecule Cc1ccc(NC(=O)CC(=O)n2nc(C)c(N=Nc3ccccc3C(=O)O)c2C)cc1 is ____.
> 100 µM

Fill blank: measured TGI of the molecule O=C1CSSCC(=O)Nc2ccccc2N1 is ____.
> 100 µM

Fill blank: measured TGI of the molecule CCN(CCO)C(=O)C1(c2ccccc2)CCCCC1 is ____.
> 10 µM

Fill blank: measured TGI of the molecule O=C1CCC2(c3ccccc3)Nc3ccncc3N12 (configuration not stated) is ____.
> 10 µM

====

Tested on: EKVX NSCLC
Assay: NCI tumour cell line growth inhibition, 48 h
Readout type: TGI

| Molecule | TGI |
| --- | --- |
| O=c1[nH]nc(-c2ccccc2)n1-c1ccncc1 | > 100 µM |

Fill blank: measured TGI of the molecule O=[N+]([O-])c1ccc2c(c1)S(=O)(=O)N1Cc3ccccc3CCN21 is ____.
> 100 µM

Reference source for all entries: PubChem BioAssay (NCI)
